The reported numbers originate from patent US5965701A.

experimental-target: cloned human kappa (hKOR) receptor (Homo sapiens, UniProt P41145)
Construct: expressed in transfected cells; host or cells: HN9.10 (mouse hippocampal neuroblastoma), stably transfected
Sequence (P41145 whole entry): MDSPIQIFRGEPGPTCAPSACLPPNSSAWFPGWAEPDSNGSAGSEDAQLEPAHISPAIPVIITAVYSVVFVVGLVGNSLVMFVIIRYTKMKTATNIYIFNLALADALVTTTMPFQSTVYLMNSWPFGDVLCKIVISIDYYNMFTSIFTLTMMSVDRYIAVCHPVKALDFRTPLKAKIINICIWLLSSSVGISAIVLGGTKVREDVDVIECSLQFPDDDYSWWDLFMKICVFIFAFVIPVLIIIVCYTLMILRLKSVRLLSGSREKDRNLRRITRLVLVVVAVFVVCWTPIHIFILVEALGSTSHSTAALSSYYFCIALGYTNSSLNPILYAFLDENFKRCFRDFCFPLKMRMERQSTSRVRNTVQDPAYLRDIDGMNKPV
experiment-notes: biochemical
Assay type: binding
experimental-context: Ki MOR / Ki KOR
Where a SMILES comes first, the peptide text is derived from it. [ ]: non-standard residue; d: D form. The star is where a group is joined. d2Nal = N[C@H](Cc1ccc2ccccc2c1)C(=O)O; d2Thi = N[C@H](Cc1cccs1)C(=O)O; NH(3-picolyl) = c1cncc(CN*)c1; NH(4-picolyl) = c1cc(CN*)ccn1; dNle = CCCC[C@@H](N)C(=O)O; Morpholide = C1CN(*)CCO1; Piperidide = C1CCN(*)CC1; NEt2 = CCN(CC)*; NHPr = CCCN*
measurement-kind: μ/κ Ratio (binding affinity for KOR versus MOR)

CCNC(=O)[C@@H](CCCN)NC(=O)[C@@H](CC(C)C)NC(=O)[C@@H](Cc1ccccc1)NC(=O)[C@H](N)Cc1ccccc1 [Peptide 56, H-D-Phe-D-Phe-D-Leu-D-Orn-NHEt]; 13,000
CCCC[C@@H](NC(=O)[C@@H](Cc1ccccc1)NC(=O)[C@H](N)Cc1ccccc1)C(=O)N[C@H](CCCNC(=N)N)C(=O)NCCC [Peptide 3, H-D-Phe-D-Phe-D-Nle-D-Arg-NHPr] (H-[dF][dF][dNle][dR]-NHPr); 18,000
CCCC[C@@H](NC(=O)[C@@H](Cc1ccccc1)NC(=O)[C@H](N)Cc1ccccc1)C(=O)N[C@H](CCCNC(=N)N)C(=O)N1CCOCC1 [Peptide 6, H-D-Phe-D-Phe-D-Nle-D-Arg-Mor] (H-[dF][dF][dNle][dR]-Morpholide); 42,000
CC(C)C[C@@H](NC(=O)[C@@H](Cc1ccc2ccccc2c1)NC(=O)[C@H](N)Cc1cccs1)C(=O)N[C@H](CCCNC(=N)N)C(=O)N1CCOCC1 [Peptide 63, H-D-Ala(2Thi)-D-2Nal-D-Leu-D-Arg-Mor] (H-[d2Thi][d2Nal][dL][dR]-Morpholide); 16,000
CCCC[C@@H](NC(=O)[C@@H](Cc1ccccc1)NC(=O)[C@H](N)Cc1ccccc1)C(=O)N[C@H](CCCNC(=N)N)C(=O)N1CCCCC1 [Peptide 12, H-D-Phe-D-Phe-D-Nle-D-Arg-Pip] (H-[dF][dF][dNle][dR]-Piperidide); 7,000

Hi team, please reply with μ/κ Ratio (binding affinity for KOR versus MOR) for each item in this list.
1. CCCC[C@@H](NC(=O)[C@@H](Cc1ccccc1)NC(=O)[C@H](N)Cc1ccccc1)C(=O)N[C@H](CCCNC(=N)N)C(=O)NCc1cccnc1 [Peptide 54, H-D-Phe-D-Phe-D-Nle-D-Arg-NH(3Pic)] (H-[dF][dF][dNle][dR]-{NH(3-picolyl)})
2. CCCC[C@@H](NC(=O)[C@@H](Cc1ccccc1)NC(=O)[C@H](N)Cc1ccccc1)C(=O)N[C@H](CCCNC(=N)N)C(=O)NCc1ccncc1 [Peptide 8, H-D-Phe-D-Phe-D-Nle-D-Arg-NH(4-Pic)] (H-[dF][dF][dNle][dR]-{NH(4-picolyl)})
3. CCCC[C@@H](NC(=O)[C@@H](Cc1ccccc1)NC(=O)[C@H](N)Cc1ccccc1)C(=O)N[C@H](CCCNC(=N)N)C(=O)N(CC)CC [Peptide 7, H-D-Phe-D-Phe-D-Nle-D-Arg-N(Et2)] (H-[dF][dF][dNle][dR]-NEt2)

Reply text:
1: 3,100; 2: 26,000; 3: 17,000

* * *

System: mouse
experimental-context: i.v.; 52° C. water; central effects
Where a SMILES comes first, the peptide text is derived from it. [ ]: non-standard residue; d: D form. The star is where a group is joined. NH(4-picolyl) = c1cc(CN*)ccn1; dNle = CCCC[C@@H](N)C(=O)O; Morpholide = C1CN(*)CCO1; NEt2 = CCN(CC)*; NHcPr = C1CC1N*
measurement-kind: TF-ED50 (mg/kg)
One number for each entry, in mg/kg.

Worked cases, TF-ED50 given:
CCCC[C@@H](NC(=O)[C@@H](Cc1ccccc1)NC(=O)[C@H](N)Cc1ccccc1)C(=O)N[C@H](CCCNC(=N)N)C(=O)N1CCOCC1 [Peptide 6, H-D-Phe-D-Phe-D-Nle-D-Arg-Mor] (H-[dF][dF][dNle][dR]-Morpholide); 6.4
CCCC[C@@H](NC(=O)[C@@H](Cc1ccccc1)NC(=O)[C@H](N)Cc1ccccc1)C(=O)N[C@H](CCCNC(=N)N)C(=O)NC1CC1 [Peptide 5, H-D-Phe-D-Phe-D-Nle-D-Arg-NH(Cyp)] (H-[dF][dF][dNle][dR]-NHcPr); 4.4
CCCC[C@@H](NC(=O)[C@@H](Cc1ccccc1)NC(=O)[C@H](N)Cc1ccccc1)C(=O)N[C@H](CCCNC(=N)N)C(=O)NCc1ccncc1 [Peptide 8, H-D-Phe-D-Phe-D-Nle-D-Arg-NH(4-Pic)] (H-[dF][dF][dNle][dR]-{NH(4-picolyl)}); 9.84

Inquiry: Form field: TF-ED50 recorded for CCCC[C@@H](NC(=O)[C@@H](Cc1ccccc1)NC(=O)[C@H](N)Cc1ccccc1)C(=O)N[C@H](CCCNC(=N)N)C(=O)N(CC)CC [Peptide 7, H-D-Phe-D-Phe-D-Nle-D-Arg-N(Et2)] (H-[dF][dF][dNle][dR]-NEt2) with mouse (enter value)
Reply text: 3.1

* * *

Provide the recorded μ/κ Ratio (binding affinity for KOR versus MOR) for the entries that follow.
experimental-target: cloned human kappa (hKOR) receptor (Homo sapiens)
Construct: expressed in transfected cells; host or cells: HN9.10 (mouse hippocampal neuroblastoma), stably transfected
experiment-notes: biochemical
Format: binding
experimental-context: Ki MOR / Ki KOR
Where a SMILES comes first, the peptide text is derived from it. [ ]: non-standard residue; d: D form. The star is where a group is joined. dPhe(3,4-Cl2) = N[C@H](Cc1ccc(Cl)c(Cl)c1)C(=O)O; dPhe(4-F) = N[C@H](Cc1ccc(F)cc1)C(=O)O; d2Nal = N[C@H](Cc1ccc2ccccc2c1)C(=O)O; d2Thi = N[C@H](Cc1cccs1)C(=O)O; dNle = CCCC[C@@H](N)C(=O)O; Morpholide = C1CN(*)CCO1; X2 = OC1CCN(*)CC1; NHBu = CCCCN*

Worked cases, μ/κ Ratio (binding affinity for KOR versus MOR) given:
CCCCNC(=O)[C@@H](CCCNC(=N)N)NC(=O)[C@@H](CCCC)NC(=O)[C@@H](Cc1ccccc1)NC(=O)[C@H](N)Cc1ccccc1 [Peptide 4, H-D-Phe-D-Phe-D-Nle-D-Arg-NHBu] (H-[dF][dF][dNle][dR]-NHBu); 7,200
CCCC[C@@H](NC(=O)[C@@H](Cc1ccccc1)NC(=O)[C@H](N)Cc1ccccc1)C(=O)N[C@H](CCCNC(=N)N)C(=O)N1CCC(O)CC1 [Peptide 11, H-D-Phe-D-Phe-D-Nle-D-Arg-4-HyP] (H-[dF][dF][dNle][dR]-X2); 62,000
CC(C)C[C@@H](NC(=O)[C@@H](Cc1ccc(Cl)c(Cl)c1)NC(=O)[C@H](N)Cc1cccs1)C(=O)N[C@H](CCCNC(=N)N)C(=O)N1CCOCC1 [Peptide 61, H-D-Ala(2Thi)-D-3,4Cpa-D-Leu-D-Arg-Mor] (H-[d2Thi][dPhe(3,4-Cl2)][dL][dR]-Morpholide); 10,400

Shifting focus to the compound that follows.
Inquiry: Reported μ/κ Ratio (binding affinity for KOR versus MOR) for CC(C)C[C@@H](NC(=O)[C@@H](Cc1ccc2ccccc2c1)NC(=O)[C@H](N)Cc1ccc(F)cc1)C(=O)N[C@H](CCCNC(=N)N)C(=O)N1CCOCC1 [Peptide 62, H-D-4Fpa-D-2Nal-D-Leu-D-Arg-Mor] (H-[dPhe(4-F)][d2Nal][dL][dR]-Morpholide) : what is it?
Reply text: 3,500

* * *

Provide the recorded Ki for the entries that follow.
experimental-target: UniProt P41145
Where a SMILES comes first, the peptide text is derived from it. [ ]: non-standard residue; d: D form. The star is where a group is joined. dPhe(4-Cl) = N[C@H](Cc1ccc(Cl)cc1)C(=O)O; d2Nal = N[C@H](Cc1ccc2ccccc2c1)C(=O)O; d2Thi = N[C@H](Cc1cccs1)C(=O)O; NH(4-picolyl) = c1cc(CN*)ccn1; N(CH2CH2)2NH = C1CN(*)CCN1; dNle = CCCC[C@@H](N)C(=O)O; Morpholide = C1CN(*)CCO1; X1 = C1CN(*)CCS1; NEt2 = CCN(CC)*
Mention the unit after the number when you answer.

Worked cases, Ki given:
CCCC[C@@H](NC(=O)[C@@H](Cc1ccccc1)NC(=O)[C@H](N)Cc1ccccc1)C(=O)N[C@H](CCCNC(=N)N)C(=O)NC [Peptide 2, H-D-Phe-D-Phe-D-Nle-D-Arg-NHMe] (H-[dF][dF][dNle][dR]-NHMe); 0.06 nM
CCCC[C@@H](NC(=O)[C@@H](Cc1ccccc1)NC(=O)[C@H](N)Cc1ccccc1)C(=O)N[C@H](CCCNC(=N)N)C(=O)N1CCOCC1 [Peptide 6, H-D-Phe-D-Phe-D-Nle-D-Arg-Mor] (H-[dF][dF][dNle][dR]-Morpholide); 0.06 nM
CCCC[C@@H](NC(=O)[C@@H](Cc1ccccc1)NC(=O)[C@H](N)Cc1ccccc1)C(=O)N[C@H](CCCNC(=N)N)C(=O)N(CC)CC [Peptide 7, H-D-Phe-D-Phe-D-Nle-D-Arg-N(Et2)] (H-[dF][dF][dNle][dR]-NEt2); 0.11 nM
CC(C)C[C@@H](NC(=O)[C@@H](Cc1ccc(Cl)cc1)NC(=O)[C@H](N)Cc1cccs1)C(=O)N[C@H](CCCNC(=N)N)C(=O)NCc1ccncc1 [Peptide 64] (H-[d2Thi][dPhe(4-Cl)][dL][dR]-{NH(4-picolyl)}); 0.31 nM

Hi team, please reply with Ki for each item in this list.
1. CC(C)C[C@@H](NC(=O)[C@@H](Cc1ccccc1)NC(=O)[C@H](N)Cc1ccccc1)C(=O)N[C@H](CCCN)C(=O)N1CCOCC1 [Peptide 57, H-D-Phe-D-Phe-D-Leu-D-Onn-Mor]
2. CCCC[C@@H](NC(=O)[C@@H](Cc1ccccc1)NC(=O)[C@H](N)Cc1ccccc1)C(=O)N[C@H](CCCNC(=N)N)C(=O)N1CCSCC1 [Peptide 10, H-D-Phe-D-Phe-D-Nle-D-Arg-Tmo] (H-[dF][dF][dNle][dR]-X1)
3. CC(C)C[C@@H](NC(=O)[C@@H](Cc1ccc2ccccc2c1)NC(=O)[C@H](N)Cc1cccs1)C(=O)N[C@H](CCCNC(=N)N)C(=O)N1CCOCC1 [Peptide 63, H-D-Ala(2Thi)-D-2Nal-D-Leu-D-Arg-Mor] (H-[d2Thi][d2Nal][dL][dR]-Morpholide)
4. CCCC[C@@H](NC(=O)[C@@H](Cc1ccccc1)NC(=O)[C@H](N)Cc1ccccc1)C(=O)N[C@H](CCCNC(=N)N)C(=O)N1CCNCC1 [Peptide 15, H-D-Phe-D-Phe-D-Nle-D-Arg-Ppz] (H-[dF][dF][dNle][dR]-{N(CH2CH2)2NH})

Reply text:
1: 0.19 nM; 2: 0.09 nM; 3: 0.2 nM; 4: 0.16 nM
